Counter-ions that a name gives are not always drawn.
MEASUREMENT NAME: melting point

Qu. # query: melting point of entry Cl.Cl.Cl.c1cc(CCc2cncc(OC[C@H]3CCCN3)c2)ccn1
Ans. 178 to 180 °C

Qu. # query: melting point of entry CN1CCC[C@H]1COc1cnc(Cl)c(-c2ccccc2)c1.Cl.Cl
Ans. 180 to 183 °C

Qu. # query: melting point of entry Nc1cccc(-c2cncc(OC[C@@H]3CCN3)c2)c1 (as salt: salt)
Ans. 85 to 87 °C

Qu. # query: melting point of entry CC(C)(C)C=CC=Cc1cc(OC[C@@H]2CCCN2)cnc1Cl (as salt: hydrochloride) [Example 148, Dihydrochloride]
Ans. 206 to 208 °C

Qu. # query: melting point of entry Cc1ccc(C#Cc2cncc(OC[C@@H]3CCCN3C)c2)cc1.Cl.Cl
Ans. 197 to 199 °C

Qu. # query: melting point of entry CN1CCC[C@H]1COc1cncc(-c2ccc(Cl)cc2Cl)c1.Cl.Cl
Ans. 176 to 178 °C

Qu. # query: melting point of entry CN1CCC[C@H]1COc1cncc(-c2ccc(F)c(Cl)c2)c1 (as salt: hydrochloride) [Example 42, Dihydrochloride]
Ans. 202 to 204 °C

Qu. # query: melting point of entry CN1CC[C@H]1COc1cnc(Cl)c(-c2ccc(Cl)cc2)c1 (as salt: citrate)
Ans. 78 to 79 °C

Reference source: patent US6437138B1
